Reference source: ChEMBL document CHEMBL1157755

- Target of assay: Histamine H1 receptor (Homo sapiens, UniProt P35367)
- Sequence (P35367 whole entry): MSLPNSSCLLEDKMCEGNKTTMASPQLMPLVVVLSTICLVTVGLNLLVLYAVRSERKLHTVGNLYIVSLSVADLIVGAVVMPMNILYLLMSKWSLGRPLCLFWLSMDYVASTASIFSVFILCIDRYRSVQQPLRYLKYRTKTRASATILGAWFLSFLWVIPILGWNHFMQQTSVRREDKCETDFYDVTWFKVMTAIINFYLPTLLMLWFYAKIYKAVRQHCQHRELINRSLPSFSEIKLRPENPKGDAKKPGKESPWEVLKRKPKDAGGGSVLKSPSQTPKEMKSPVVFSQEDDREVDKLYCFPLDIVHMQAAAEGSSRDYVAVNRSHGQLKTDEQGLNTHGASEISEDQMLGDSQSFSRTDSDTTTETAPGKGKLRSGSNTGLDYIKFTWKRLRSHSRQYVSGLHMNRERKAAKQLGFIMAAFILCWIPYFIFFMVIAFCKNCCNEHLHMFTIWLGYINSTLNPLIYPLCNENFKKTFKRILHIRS
- Experiment summary: Activity at human recombinant histamine H1 receptor expressed in Sf9 cells coexpressing RGS4 by steady-state GTPase activity assay
Entries annotated with measured pEC50
The scale used: pEC50 is minus the common logarithm of the concentration in molar units.

* C[C@H](CC(=O)NC(N)=NCCCc1cnc[nH]1)C1CCCCC1 | 7.05
* C[C@H](CC(=O)NC(N)=NCCCc1cnc[nH]1)c1ccccc1 | 5.21

### Prompt Endpoint output: pEC50 of C[C@@H](CC(=O)NC(N)=NCCCc1cnc[nH]1)C1CCCCC1 . Value?
### Response 7.18

### Prompt What pEC50 value was documented for this compound, C[C@@H](CC(=O)NC(N)=NCCCc1cnc[nH]1)c1ccccc1 ?
### Response 6.08
